# Tested on: Normal Human Dermal Fibroblasts-Neonatal (NHDF-Neo)
# test-protocol: Influence of metal ions on cellular proliferation (MTT with Cu2+), NHDF-Neo
# Type: cell-based
# reported-conditions: MTT assay, 24 h, addition of copper acetate at 100 µM
readout: IC50 (µM)
Please state the figure in µM; there is no need to write the unit.

Requested field: IC50. Item: CC(=O)OC[C@H]1O[C@@H](Sc2ccc(NC(=O)Cn3cc(COc4cccc5cccnc45)nn3)cn2)[C@H](OC(C)=O)[C@@H](OC(C)=O)[C@H]1OC(C)=O
83.6

Field entry: CC(=O)OC[C@H]1O[C@@H](Sc2ccc(NC(=O)OCc3cn(CCCOc4cccc5cccnc45)nn3)cn2)[C@H](OC(C)=O)[C@@H](OC(C)=O)[C@H]1OC(C)=O
69.3

Field entry: CC(=O)OC[C@H]1O[C@@H](Sc2ccc(NC(=O)Cn3cc(COc4cccc5cccnc45)nn3)cn2)[C@H](OC(C)=O)[C@@H](OC(C)=O)[C@@H]1OC(C)=O
71.4

Field entry: CC(=O)OC[C@H]1O[C@@H](Sc2ccc(NC(=O)OCc3cn(CCCOc4cccc5cccnc45)nn3)cn2)[C@H](OC(C)=O)[C@@H](OC(C)=O)[C@@H]1OC(C)=O
68.4

====

# Test system: MCF-7 cells
# test-protocol: MTT cytotoxicity assay, MCF-7
# Assay type: cell-based
# reported-conditions: Homo sapiens, MCF7, incubation time 72 h, mean ± SD (n = 3)
readout: IC50

Requested field: IC50. Item: Cc1ccc2cccc(OCCCn3cc(CS[C@@H]4O[C@H](CO)[C@@H](O)[C@H](O)[C@H]4O)nn3)c2n1 [Compound 65]
> 800 µM

Field entry: OC[C@H]1O[C@@H](SCc2cn(CCCOc3cccc4cccnc34)nn2)[C@H](O)[C@@H](O)[C@@H]1O [Compound 63]
> 800 µM

Field entry: CC(=O)OC[C@H]1O[C@@H](Sc2ccc(NC(=O)OCc3cn(CCCOc4cccc5cccnc45)nn3)cn2)[C@H](OC(C)=O)[C@@H](OC(C)=O)[C@@H]1OC(C)=O [Compound 70]
67.5 µM

Field entry: C#CCOC(=O)Nc1ccc(S[C@@H]2O[C@H](COC(C)=O)[C@@H](OC(C)=O)[C@H](OC(C)=O)[C@H]2OC(C)=O)nc1 [Compound 36]
38.3 µM

Field entry: CC(=O)OC[C@H]1O[C@@H](Sc2ccc(NC(=O)Cn3cc(COc4cccc5cccnc45)nn3)cn2)[C@H](OC(C)=O)[C@@H](OC(C)=O)[C@H]1OC(C)=O [Compound 68]
96.3 µM

Field entry: OC[C@H]1O[C@@H](SCc2cn(CCCOc3cccc4cccnc34)nn2)[C@H](O)[C@@H](O)[C@H]1O [Compound 64]
> 800 µM

====

# System: MCF-7 cells
# test-protocol: MTT cytotoxicity assay, MCF-7
# Format: cell-based
# reported-conditions: Homo sapiens, MCF7, incubation time 72 h, mean ± SD (n = 3)
pIC50: −log10 of the molar value.
Threshold check on pIC50: at or above 4 gives 1, strictly below gives -1.

In plain terms: is recorded pIC50 at least 4 for C#CCOC(=O)Nc1ccc(S[C@@H]2O[C@H](CO)[C@@H](O)[C@H](O)[C@H]2O)nc1 ?
-1

Field entry: CC(=O)OC[C@H]1O[C@@H](Sc2ccc(NC(=O)Cn3cc(COc4cccc5cccnc45)nn3)cn2)[C@H](OC(C)=O)[C@@H](OC(C)=O)[C@@H]1OC(C)=O
1

Field entry: CC(=O)OC[C@H]1O[C@@H](SCc2cn(CCCOc3cccc4ccc(C)nc34)nn2)[C@H](OC(C)=O)[C@@H](OC(C)=O)[C@H]1OC(C)=O
-1

Field entry: CC(=O)OC[C@H]1O[C@@H](Sc2ccc(NC(=O)OCc3cn(CCCOc4cccc5cccnc45)nn3)cn2)[C@H](OC(C)=O)[C@@H](OC(C)=O)[C@H]1OC(C)=O
1

Field entry: CC(=O)OC[C@H]1O[C@@H](SCc2cn(CCCOc3cccc4cccnc34)nn2)[C@H](OC(C)=O)[C@@H](OC(C)=O)[C@@H]1OC(C)=O
-1

Field entry: CC(=O)OC[C@H]1O[C@@H](Sc2ccc(NC(=O)CN=[N+]=[N-])cn2)[C@H](OC(C)=O)[C@@H](OC(C)=O)[C@@H]1OC(C)=O
1
